- testSystem: KRAS (G12D)::CRAF protein::protein interaction (Homo sapiens (Human), UniProt P01116, G12D)
- Sequence (P01116 other isoform, or with tags, fused parts or gaps G12D): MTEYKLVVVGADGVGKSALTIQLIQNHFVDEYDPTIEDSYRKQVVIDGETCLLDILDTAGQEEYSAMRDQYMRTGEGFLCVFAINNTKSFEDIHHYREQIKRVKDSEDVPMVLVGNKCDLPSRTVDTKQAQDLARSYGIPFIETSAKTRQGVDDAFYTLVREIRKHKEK
- experimentSummary: KRAS TR-FRET assay (KRAS G12D::CRAF, GTP)
quantity: IC50 (nM)

Record excerpt, results attached:
{"compound": "C[C@H](Oc1nc(-c2onc3c2CCC[C@@]32CCCc3sc(N)c(C#N)c32)nc2c1n(C)c(=O)n2[C@H]1CCOC1)[C@@H]1CCCN1C [I-9]", "IC50 (nM)": 418}
{"compound": "C[C@H](Oc1nc(-c2onc3c2CCC[C@@]32CCCc3sc(N)c(C#N)c32)nc2c1n(C)c(=O)n2[C@@H]1CCOC1)[C@@H]1[C@@H](F)CCN1C [I-5]", "IC50 (nM)": 449}
{"compound": "C[C@H](Oc1nc(-c2onc3c2CCC[C@@]32CCCc3sc(N)c(C#N)c32)nc2c1n(C)c(=O)n2[C@@H]1CCOC1)[C@@H]1C[C@@H]2C[C@@H]2N1C [I-28]", "IC50 (nM)": 434}
{"compound": "C[C@H](Oc1nc(-c2onc3c2CCC[C@@]32CCCc3sc(N)c(C#N)c32)nc2c1n(C)c(=O)n2C1COC1)[C@@H]1CCCN1C [I-24]", "IC50 (nM)": 565}

[P] CCn1c(=O)n([C@@H]2CCOC2)c2nc(-c3onc4c3CCC[C@@]43CCCc4sc(N)c(C#N)c43)nc(O[C@@H](C)[C@@H]3CCCN3C)c21 [I-21]
[Q] C[C@H](Oc1nc(-c2onc3c2CCC[C@@]32CCCc3sc(N)c(C#N)c32)nc2c1n(C)c(=O)n2[C@@H]1CCOC1)[C@@H]1C[C@H](F)CN1C [I-27]
Q: // pick larger IC50 from pair: P vs Q // return label of chosen record
Result: Q
(Q: 410 nM, P: 85 nM)

* * *

- testSystem: KRAS (G12D)::CRAF protein::protein interaction (Homo sapiens (Human), UniProt P01116, G12D)
- experimentSummary: KRAS TR-FRET assay (KRAS G12D::CRAF, GTP)
quantity: IC50 (nM)

Reference set (8 entries):
{"compound": "Cc1cc2c(O[C@@H](C)[C@@H]3CCCN3C)nc(-c3onc4c3CCC[C@@]43CCCc4sc(N)c(C#N)c43)nc2n1[C@@H]1CCOC1 [I-40]", "IC50, nM": 182}
{"compound": "C[C@H](Oc1nc(-c2onc3c2CCC[C@@]32CCCc3sc(N)c(C#N)c32)nc2c1ncn2[C@@H]1CCOC1)[C@@H]1CCCN1C [I-38]", "IC50, nM": 45}
{"compound": "C[C@H](Oc1nc(-c2onc3c2CCC[C@@]32CCCc3sc(N)c(C#N)c32)nc2c1COC[C@]21CCOC1)[C@@H]1CCCN1C [I-54]", "IC50, nM": 25}
{"compound": "C[C@H](Oc1nc(-c2onc3c2CCC[C@@]32CCCc3sc(N)c(C#N)c32)nc2c1n(C)c(=O)n2[C@@H]1CCOC1)[C@@H]1CCCN1C [I-20]", "IC50, nM": 46}
{"compound": "C[C@H](Oc1nc(-c2onc3c2CCC[C@@]32CCCc3sc(N)c(C#N)c32)nc2c1n(C)c(=O)n2[C@@]12COC[C@@H]1C2)[C@@H]1CCCN1C [I-29]", "IC50, nM": 85}
{"compound": "C[C@H](Oc1nc(-c2onc3c2CCC[C@@]32CCCc3sc(N)c(C#N)c32)nc2c1n(C)c(=O)n2[C@H]1CCCOC1)[C@@H]1CCCN1C [I-11]", "IC50, nM": 460}
{"compound": "CCn1c(=O)n([C@@H]2CCCOC2)c2nc(-c3onc4c3CCC[C@@]43CCCc4sc(N)c(C#N)c43)nc(O[C@@H](C)[C@@H]3CCCN3C)c21 [I-30]", "IC50, nM": 163}
{"compound": "C[C@H](Oc1nc(-c2noc3c2CCC[C@@]32CCCc3sc(N)c(C#N)c32)nc2c1cnn2[C@@H]1CCOC1)[C@@H]1CCCN1C [II-4]", "IC50, nM": 97}

[P] C[C@H](Oc1nc(-c2onc3c2CCC[C@@]32CCCc3sc(N)c(C#N)c32)nc2c1n(C)c(=O)n2[C@@H]1CCOC1)C12CCCN1CCC2 [I-25]
[Q] C[C@H](Oc1nc(-c2onc3c2CCC[C@@]32CCCc3sc(N)c(C#N)c32)nc2c1n(C)c(=O)n2C12COC(C1)C2)[C@@H]1CCCN1C [I-15]
Q: Decide: P or Q , by lowest recorded IC50. Reply briefly: the label of your chosen item.
Result: P
(P: 53 nM, Q: 298 nM)

[I] CO[C@@H]1C[C@@H]([C@H](C)Oc2nc(-c3onc4c3CCC[C@@]43CCCc4sc(N)c(C#N)c43)nc3c2n(C)c(=O)n3[C@@H]2CCOC2)N(C)C1 [I-3]
[II] CO[C@H]1CCN(C)[C@@H]1[C@H](C)Oc1nc(-c2noc3c2CCC[C@@]32CCCc3sc(N)c(C#N)c32)nc2c1n(C)c(=O)n2[C@@H]1CCOC1 [II-1]
Q: Returns: the label, I or II , whose recorded IC50 is the lower number. Mark your selection by writing its label.
Result: II
